Biological target: human vasopressin V1a receptor subtype (Homo sapiens)
Assay: Vasopressin binding in CHO cell membranes expressing human vasopressin V1a subtype receptors
Conditions: 100 nM, [3H]Manning ligand
Text: Vasopressin Binding in Chinese Hamster Ovary Cell Membranes Expressing Human Vasopressin V1a Subtype Receptors Chinese hamster ovary cells (CHO cells) stably transfected with the human vasopressin V1a subtype receptors were either obtained from Biosignal Inc., 1744 rue Williams, Montreal, Quebec, Canada or obtained from M. Thibonnier, Case Western Reserve University School of Medicine, Cleveland, Ohio. […]
MEASURED ATTRIBUTE: V1a % inhibition at 100 nM (%)
The reply should contain only the number, in %.

Consider the reported V1a % inhibition at 100 nM for these compounds:
>>> experimental_value("O=C(c1ccc(C2CCCCC2)cc1)N1Cc2ccc(C(=O)N3CCC[C@H]3CN3CCCC3)n2Cc2ccccc21")
21
>>> experimental_value("Cc1ccccc1C(=O)NNC(=O)c1ccc2n1Cc1ccccc1N(C(=O)c1ccc(C3CCCCC3)cc1)C2")
31
>>> experimental_value("O=C(C(=O)N1CCC(N2CCCCC2)CC1)c1ccc2n1Cc1ccccc1N(C(=O)c1ccc(C3CCCCC3)cc1)C2")
69
>>> experimental_value("O=C(c1ccc2n1Cc1ccccc1N(C(=O)c1ccc(C3CCCCC3)cc1)C2)N1CCN(c2ccncc2)CC1")
0
>>> experimental_value("Cc1cccc(C(=O)NNC(=O)c2ccc3n2Cc2ccccc2N(C(=O)c2ccc(C4CCCCC4)cc2)C3)c1")
23
>>> experimental_value("O=C(c1ccc2n1Cc1ccccc1N(C(=O)c1ccc(C3CCCCC3)cc1)C2)N1CCN(CCO)CC1")
35
>>> experimental_value("O=C(NNC(=O)C1CC1)c1ccc2n1Cc1ccccc1N(C(=O)c1ccc(C3CCCCC3)cc1)C2")
35
>>> experimental_value("O=C(O)c1ccc2n1Cc1ccccc1N(C(=O)c1ccc(C3CCCCC3)cc1)C2")
13

Asked: Give V1a % inhibition at 100 nM for CN1CCN(C(=O)C(=O)c2ccc3n2Cc2ccccc2N(C(=O)c2ccc(C4CCCCC4)cc2)C3)CC1
Given back: 56

Asked: Look up and state reported V1a % inhibition at 100 nM for CN(C)[C@@H]1CCN(C(=O)c2ccc3n2Cc2ccccc2N(C(=O)c2ccc(C4CCCCC4)cc2)C3)C1
Given back: 28

* * *

molecular target: UniProt:P30559; experiment: Oxytocin binding in CHO cell membranes expressing human oxytocin receptors; conditions: 100 nM, [3H]oxytocin, read-out: OT % inhibition at 100 nM
MEASURED ATTRIBUTE: inhibition at 0.1 µM (%)
Number in %, nothing else.

Some solved cases for reference:
>>> experimental_value("CN(C)CCCN1CCN(C(=O)c2ccc3n2Cc2ccccc2N(C(=O)c2ccc(C4CCCCC4)cc2)C3)CC1")
71
>>> experimental_value("O=C(NCCc1ccccn1)c1ccc2n1Cc1ccccc1N(C(=O)c1ccc(C3CCCCC3)cc1)C2")
-2
>>> experimental_value("O=C(c1ccc(C2CCCCC2)cc1)N1Cc2ccc(C(=O)C(Cl)(Cl)Cl)n2Cc2ccccc21")
12

Asked: Provide UniProt:P30559 inhibition at 0.1 µM reading for CN(Cc1cccnc1)C(=O)c1ccc2n1Cc1ccccc1N(C(=O)c1ccc(C3CCCCC3)cc1)C2 .
Given back: -4

* * *

target: human oxytocin receptor (Homo sapiens, UniProt P30559); test: Oxytocin binding in CHO cell membranes expressing human oxytocin receptors; conditions: 100 nM, [3H]oxytocin, read-out: OT % inhibition at 100 nM
Sequence (P30559 whole entry): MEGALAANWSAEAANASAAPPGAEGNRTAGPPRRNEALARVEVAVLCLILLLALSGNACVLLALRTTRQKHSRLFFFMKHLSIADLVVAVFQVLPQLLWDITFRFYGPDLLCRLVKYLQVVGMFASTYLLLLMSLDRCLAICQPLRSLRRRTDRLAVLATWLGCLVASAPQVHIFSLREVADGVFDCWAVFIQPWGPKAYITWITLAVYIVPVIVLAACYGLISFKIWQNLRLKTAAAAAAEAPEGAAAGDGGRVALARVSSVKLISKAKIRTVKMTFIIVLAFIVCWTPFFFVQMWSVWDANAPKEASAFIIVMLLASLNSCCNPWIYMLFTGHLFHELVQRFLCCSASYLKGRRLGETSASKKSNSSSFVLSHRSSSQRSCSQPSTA
MEASURED ATTRIBUTE: inhibition at 0.1 µM (%)
Return type: number; implicit unit %.

Please review the entries below; each comes with its answer.
>>> experimental_value("CN(C)CCN1CCN(C(=O)c2ccc3n2Cc2ccccc2N(C(=O)c2ccc(C4CCCCC4)cc2)C3)CC1 [Example 41]")
31
>>> experimental_value("CN(C)/C=C/C(=O)c1ccc2n1Cc1ccccc1N(C(=O)c1ccc(C3CCCCC3)cc1)C2 [Example 20]")
43
>>> experimental_value("C=CCN1CCN(C(=O)c2ccc3n2Cc2ccccc2N(C(=O)c2ccc(C4CCCCC4)cc2)C3)CC1 [Example 43]")
1
>>> experimental_value("COC(=O)c1ccc2c(c1)N(C(=O)c1ccc(C3CCCCC3)cc1)Cc1ccc(C(=O)N3CCN(C)CC3)n1C2.Cl [Example 1, hydrochloride salt]")
14
>>> experimental_value("O=C(NCc1ccncc1)c1ccc2n1Cc1ccccc1N(C(=O)c1ccc(C3CCCCC3)cc1)C2 [Example 53]")
25
>>> experimental_value("O=C(NCCCn1ccnc1)c1ccc2n1Cc1ccccc1N(C(=O)c1ccc(C3CCCCC3)cc1)C2 [Example 36]")
13
>>> experimental_value("CN(CCc1ccccn1)C(=O)c1ccc2n1Cc1ccccc1N(C(=O)c1ccc(C3CCCCC3)cc1)C2 [Example 52]")
45
>>> experimental_value("O=C(NCc1ccccn1)c1ccc2n1Cc1ccccc1N(C(=O)c1ccc(C3CCCCC3)cc1)C2 [Example 50]")
-8
>>> experimental_value("CN1CCC(N(C)C(=O)c2ccc3n2Cc2ccccc2N(C(=O)c2ccc(C4CCCCC4)cc2)C3)CC1 [Example 39]")
85
>>> experimental_value("CN1CCC(N(C)C(=O)c2ccc3n2Cc2ccccc2N(C(=O)c2ccc(C4CCCCC4)cc2)C3)C1 (stereo not drawn) [Example 40]")
60

Asked: Answer with the recorded inhibition at 0.1 µM for the compound listed here: CN(C)CCN(C)C(=O)c1ccc2n1Cc1ccccc1N(C(=O)c1ccc(C3CCCCC3)cc1)C2 [Example 34]
Given back: -5

Asked: Identify measured inhibition at 0.1 µM corresponding to CN1CCCC1CCNC(=O)c1ccc2n1Cc1ccccc1N(C(=O)c1ccc(C3CCCCC3)cc1)C2 (stereo not drawn) [Example 38]
Given back: 57

Asked: Answer with the recorded inhibition at 0.1 µM for the compound listed here: O=C(c1ccc(C2CCCCC2)cc1)N1Cc2ccc(C(=O)n3ccnc3)n2Cc2ccccc21 [Example 56]
Given back: 61

Asked: Tell me its inhibition at 0.1 µM given O=C(NCCN1CCCCC1)c1ccc2n1Cc1ccccc1N(C(=O)c1ccc(C3CCCCC3)cc1)C2 [Example 37] as the entry.
Given back: 61

Asked: Tell me its inhibition at 0.1 µM given CC(C)N1CCN(C(=O)c2ccc3n2Cc2ccccc2N(C(=O)c2ccc(C4CCCCC4)cc2)C3)CC1 [Example 44] as the entry.
Given back: 2

* * *

biological target: human vasopressin V1a receptor subtype (Homo sapiens, UniProt P37288); assay: Vasopressin binding in CHO cell membranes expressing human vasopressin V1a subtype receptors; conditions: 100 nM, [3H]Manning ligand
Sequence (P37288 whole entry): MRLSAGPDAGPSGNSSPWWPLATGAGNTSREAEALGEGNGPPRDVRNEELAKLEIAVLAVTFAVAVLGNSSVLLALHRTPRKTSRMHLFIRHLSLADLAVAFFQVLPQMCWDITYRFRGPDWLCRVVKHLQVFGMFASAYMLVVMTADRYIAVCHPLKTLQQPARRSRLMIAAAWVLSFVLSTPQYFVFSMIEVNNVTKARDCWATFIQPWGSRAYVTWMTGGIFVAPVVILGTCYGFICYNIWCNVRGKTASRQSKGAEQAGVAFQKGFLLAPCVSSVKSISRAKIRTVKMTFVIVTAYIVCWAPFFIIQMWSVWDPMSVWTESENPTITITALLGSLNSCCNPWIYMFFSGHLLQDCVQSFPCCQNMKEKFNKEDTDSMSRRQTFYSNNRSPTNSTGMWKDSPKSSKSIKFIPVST
Give YES when the value for inhibition at 0.1 µM is at least 20%. Give NO when it is less.

>>> label_value("CN(C)CCCN1CCN(C(=O)c2ccc3n2Cc2ccccc2N(C(=O)c2ccc(C4CCCCC4)cc2)C3)CC1")
"YES"

Asked: Could you tell me if the measured inhibition at 0.1 µM of CN(CCc1ccccn1)C(=O)c1ccc2n1Cc1ccccc1N(C(=O)c1ccc(C3CCCCC3)cc1)C2 reaches 20% or more?
Given back: NO

Asked: Dear colleague, could you confirm whether Cc1ccccc1N1CCN(C(=O)c2ccc3n2Cc2ccccc2N(C(=O)c2ccc(C4CCCCC4)cc2)C3)CC1 has inhibition at 0.1 µM at or above 20%?
Given back: NO

Asked: Please check the record O=C(NCc1cccnc1)c1ccc2n1Cc1ccccc1N(C(=O)c1ccc(C3CCCCC3)cc1)C2 and state if its inhibition at 0.1 µM is at or above 20%.
Given back: NO

Asked: Hi, just wondering whether CN(C)CCCNC(=O)c1ccc2n1Cc1ccccc1N(C(=O)c1ccc(C3CCCCC3)cc1)C2 shows inhibition at 0.1 µM of 20% or higher.
Given back: YES

Asked: Check the entry CN(C)CCN1CCN(C(=O)c2ccc3n2Cc2ccccc2N(C(=O)c2ccc(C4CCCCC4)cc2)C3)CC1 : does inhibition at 0.1 µM equal or exceed 20%?
Given back: NO

* * *

target: human V2 vasopressin receptor subtype (Homo sapiens); assay: Vasopressin binding in CHO cell membranes expressing human vasopressin V2 subtype receptors; conditions: 100 nM, [3H]arginine vasopressin
Sequence (P30518 whole entry): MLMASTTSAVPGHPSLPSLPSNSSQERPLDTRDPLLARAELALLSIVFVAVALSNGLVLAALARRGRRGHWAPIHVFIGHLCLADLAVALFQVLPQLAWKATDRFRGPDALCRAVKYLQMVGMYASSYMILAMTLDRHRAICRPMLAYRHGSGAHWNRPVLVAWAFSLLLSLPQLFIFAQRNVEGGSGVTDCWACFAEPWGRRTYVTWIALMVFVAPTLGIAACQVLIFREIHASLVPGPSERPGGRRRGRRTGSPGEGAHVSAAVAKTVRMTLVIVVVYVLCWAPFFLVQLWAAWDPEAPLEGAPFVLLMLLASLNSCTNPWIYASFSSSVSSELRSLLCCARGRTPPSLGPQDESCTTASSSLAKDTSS
Short version: inhibition at 0.1 µM at least 10% is yes (1), less is no (0).

>>> label_value("O=C(c1ccc2n1Cc1ccccc1N(C(=O)c1ccc(C3CCCCC3)cc1)C2)N1CCN(CCN2CCOCC2)CC1")
"no (0)"

Asked: Would you say O=C(NNC(=O)c1ccc2n1Cc1ccccc1N(C(=O)c1ccc(C3CCCCC3)cc1)C2)Nc1ccccc1 shows inhibition at 0.1 µM at minimum 10%?
Given back: yes (1)

Asked: Exam item: decide whether the reported inhibition at 0.1 µM for O=C(NCc1ccccn1)c1ccc2n1Cc1ccccc1N(C(=O)c1ccc(C3CCCCC3)cc1)C2 is at least 10%.
Given back: yes (1)

Asked: Decide: inhibition at 0.1 µM of CN1CCN(C(=O)c2ccc3n2Cc2ccc(C(=O)O)cc2N(C(=O)c2ccc(C4CCCCC4)cc2)C3)CC1 >= 10%?
Given back: no (0)
